Taken from the supplement of paper PMC3334620.

Target Desc: Msn1 (UniProt P22148)
Sequence: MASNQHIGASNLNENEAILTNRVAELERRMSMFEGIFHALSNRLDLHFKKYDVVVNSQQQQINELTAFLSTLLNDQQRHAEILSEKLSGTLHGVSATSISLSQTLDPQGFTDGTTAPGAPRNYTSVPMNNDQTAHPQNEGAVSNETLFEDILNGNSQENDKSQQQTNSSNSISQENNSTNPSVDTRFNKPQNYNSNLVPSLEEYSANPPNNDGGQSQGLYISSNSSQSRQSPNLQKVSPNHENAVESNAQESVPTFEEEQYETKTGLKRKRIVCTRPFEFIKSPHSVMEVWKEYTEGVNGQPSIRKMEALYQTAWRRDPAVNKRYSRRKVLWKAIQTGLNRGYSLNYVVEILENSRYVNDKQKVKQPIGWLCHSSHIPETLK
Protocol Description: PBM E-score (8-mer binding enrichment) (E-score (-0.5 to 0.5)); higher = stronger / more preferred TF binding
Recorded Conditions: protein concentration: 200 nM; construct: GST-full length
Over roughly 33,000 sequences, “E-score (-0.5 to 0.5)” has its median near -0.013; the highest 2% begin near 0.3. Only a selection was taken, and the highest values are over-represented in it overall.
# binarize PBM E-score: threshold 0.09 inclusive, high side TRUE, low side FALSE

GCGCGATA: TRUE
GCGTGTCA: TRUE
ACCTCGAG: FALSE
ACGCTAAT: FALSE
CGCATACG: FALSE

Q. Item AAAAAATC with PBM E-score of 0.09 or above?
A. TRUE

Q. API: above_or_equal(metric=PBM E-score, cutoff=0.09) for item AAAATTGT
A. TRUE

Q. Does the sequence AACAGAGT have recorded PBM E-score that is 0.09 or more?
A. TRUE

Q. Please tell me: is the sequence GTGTCCTA at or over 0.09 in terms of PBM E-score?
A. TRUE

Q. hey, is PBM E-score for this one >= 0.09? GCGTGTCC
A. TRUE

Q. State whether the measured PBM E-score reaches 0.09, counting equality as reaching it, for CCTCTCGA
A. FALSE

---

Target Desc: Msn1 (UniProt P22148)
Sequence: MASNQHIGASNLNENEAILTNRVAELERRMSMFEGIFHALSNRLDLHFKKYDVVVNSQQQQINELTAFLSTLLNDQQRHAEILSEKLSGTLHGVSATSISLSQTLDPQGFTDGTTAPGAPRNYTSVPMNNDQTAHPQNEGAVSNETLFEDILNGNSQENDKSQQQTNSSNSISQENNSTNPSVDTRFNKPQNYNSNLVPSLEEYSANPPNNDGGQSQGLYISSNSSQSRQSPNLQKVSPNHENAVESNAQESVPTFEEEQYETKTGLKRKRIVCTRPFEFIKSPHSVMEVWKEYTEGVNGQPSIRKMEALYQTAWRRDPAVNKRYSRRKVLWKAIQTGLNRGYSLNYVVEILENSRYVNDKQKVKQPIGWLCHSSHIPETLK
Protocol Description: PBM E-score (8-mer binding enrichment) (E-score (-0.5 to 0.5)); higher = stronger / more preferred TF binding
Recorded Conditions: protein concentration: 200 nM; construct: GST-full length
The full ranking holds about 33,000 sequences; the median of “E-score (-0.5 to 0.5)” is about -0.013, and the highest 2% start at about 0.3. What follows is part of a selection rich in the highest values, with near analogues and random picks from the rest.
Measure: PBM E-score

GGAGACAA: 0.32

Q. // query PBM E-score value for entry AATGCGTG
A. 0.0114

Q. What measured PBM E-score goes with GTATGTAA ?
A. 0.0384

Q. Can you share its PBM E-score? I mean this sequence: AGATGTCG
A. 0.0151

Q. Using the record for ATATTGCC , report its PBM E-score.
A. 0.0437

Q. Value lookup for PBM E-score; key = ATCGTATG
A. 0.0884

---

Target Desc: Msn1 (UniProt P22148)
Sequence: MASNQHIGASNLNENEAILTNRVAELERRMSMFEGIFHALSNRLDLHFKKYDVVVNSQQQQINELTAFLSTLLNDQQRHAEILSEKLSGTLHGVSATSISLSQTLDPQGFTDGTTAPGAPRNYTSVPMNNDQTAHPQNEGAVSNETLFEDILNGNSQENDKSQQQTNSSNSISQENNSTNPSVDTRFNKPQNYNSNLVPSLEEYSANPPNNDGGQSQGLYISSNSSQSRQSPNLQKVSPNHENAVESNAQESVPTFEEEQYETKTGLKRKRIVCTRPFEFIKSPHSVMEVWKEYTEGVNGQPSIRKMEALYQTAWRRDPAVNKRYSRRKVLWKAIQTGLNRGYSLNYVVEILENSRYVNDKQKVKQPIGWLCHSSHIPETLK
Protocol Description: PBM E-score (8-mer binding enrichment) (E-score (-0.5 to 0.5)); higher = stronger / more preferred TF binding
Recorded Conditions: protein concentration: 200 nM; construct: GST-full length
The full ranking holds about 33,000 sequences; the median of “E-score (-0.5 to 0.5)” is about -0.013, and the highest 2% start at about 0.3. This is one part of a sample in which the highest values are shown more often than they occur.
y means recorded PBM E-score is 0.04 or above; n means it is below 0.04.

These recorded examples may help you get a feel for the data.
TACAAGAA: y
GACAAAAA: y
AACAAGCC: n

Q. Identify whether the reported PBM E-score of the following sequence is 0.04 or greater: GTAATATA
A. y

Q. Check the entry TGCAGGAA : does PBM E-score equal or exceed 0.04?
A. y

Q. Confirm if PBM E-score reported for the sequence GTGGGAGA is 0.04 or above.
A. n

Q. Check this sequence for PBM E-score at or above 0.04: TACAAAAA
A. y

Q. Textbook exercise: given the entry AATCTGGG , state whether its PBM E-score is greater than or equal to 0.04.
A. n

---

Target Desc: Msn1 (UniProt P22148)
Sequence: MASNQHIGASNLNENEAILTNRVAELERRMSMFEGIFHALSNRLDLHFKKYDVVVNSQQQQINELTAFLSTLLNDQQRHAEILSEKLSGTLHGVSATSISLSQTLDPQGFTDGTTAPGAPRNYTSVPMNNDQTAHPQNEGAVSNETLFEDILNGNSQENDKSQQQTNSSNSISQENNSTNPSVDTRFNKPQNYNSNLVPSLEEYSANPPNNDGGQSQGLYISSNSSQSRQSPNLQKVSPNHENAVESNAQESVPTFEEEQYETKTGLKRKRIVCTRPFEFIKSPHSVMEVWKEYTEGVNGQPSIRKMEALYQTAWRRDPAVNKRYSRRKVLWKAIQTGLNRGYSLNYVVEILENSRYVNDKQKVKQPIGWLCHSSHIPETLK
Protocol Description: PBM E-score (8-mer binding enrichment) (E-score (-0.5 to 0.5)); higher = stronger / more preferred TF binding
Recorded Conditions: protein concentration: 200 nM; construct: GST-full length
The full ranking holds about 33,000 sequences; the median of “E-score (-0.5 to 0.5)” is about -0.013, and the highest 2% start at about 0.3. This excerpt belongs to a sample that is enriched for the highest values.
Measure: PBM E-score
// return just the number, without any unit appended

GACCACCA: -0.246

Q. Checklist item: PBM E-score tested on Msn1 (UniProt P22148), entry AGGTCGCG , value?
A. 0.0713

Q. Lab note: need PBM E-score with Msn1 (UniProt P22148) for entry CGGACAGA , please look it up.
A. 0.302

Q. Any idea what PBM E-score came out for GCCGATTA on Msn1 (UniProt P22148)?
A. -0.0616

Q. Msn1 (UniProt P22148) / PBM E-score / CGGACGAA : value?
A. 0.337

Q. Write down the reported PBM E-score of TGTCTCAA , test system: Msn1 (UniProt P22148).
A. 0.384

Q. Reported PBM E-score for Msn1 (UniProt P22148), given CTATGTAC ?
A. 0.189

Q. What PBM E-score appears in the records for this sequence with Msn1 (UniProt P22148)? AATTTTGT
A. 0.34

Q. Missing value: PBM E-score, Msn1 (UniProt P22148), entry AATTTTGC . Fill in?
A. 0.0375

Q. I'm curious: which PBM E-score was measured for ATATCCGG tested on Msn1 (UniProt P22148)?
A. 0.11

Q. Please state recorded PBM E-score (tested on Msn1 (UniProt P22148)) of CCCGGACA
A. 0.425

Q. Provide value of PBM E-score for this record tested with Msn1 (UniProt P22148): GGTTAGAC
A. 0.076

Q. Give PBM E-score (Msn1 (UniProt P22148)) of the following sequence: AACATAGC
A. 0.13

Q. State its PBM E-score on Msn1 (UniProt P22148): ATCGAAAT
A. -0.151

Q. // fetch Msn1 (UniProt P22148) PBM E-score for AAATTTGA
A. 0.19

Q. Any idea what PBM E-score came out for TCTAAAGA on Msn1 (UniProt P22148)?
A. 0.205

Q. Entry CACCTTCG , system Msn1 (UniProt P22148): what PBM E-score was measured?
A. -0.0896

Q. Test system Msn1 (UniProt P22148); read-out PBM E-score; what value for CCAAATCG ?
A. -0.101

Q. Param readout = PBM E-score; param system = Msn1 (UniProt P22148); param query = GAATGTAC ; response: value
A. 0.342

Q. GET /values?readout=PBM E-score&system=Msn1 (UniProt P22148)&item= CCTGCCAA
A. -0.125

Q. Lab note: need PBM E-score for GTCTGAAA on Msn1 (UniProt P22148), anyone have it?
A. 0.241
